# key: entry, value: IC50
- assayTarget: Integrin alpha-V/beta-3 and alpha-IIb/beta 3 (Homo sapiens, UniProt P05106+P06756+P08514)
- testDescription: Inhibition of platelet aggregation in human platelet-rich plasma alpha IIb beta-3 integrin to assess the selectivity for the alpha-v beta-3 over the GPIIb/IIIa integrin receptor
valueKind: IC50 (µM)

In [3]: df
Out[3]:
                               samplesmiles                               assaytarget  readoutunit  observed
0  Cc1cc(C)c(S(=O)(=O)N[C@@H](CNC(=O)C2=NO[C@]3(C2)C[C@@H](CNC2=NCCN2)N(C(=O)OCc2ccccc2)C3)C(=O)O)c(C)c1  Integrin alpha-V/beta-3 and alpha-IIb/beta 3 (Homo sapiens, UniProt P05106+P06756+P08514)           µM       7.3
1  Cc1cc(C)c(S(=O)(=O)N[C@@H](CNC(=O)C2=NO[C@]3(C2)C[C@@H](CNc2ncc[nH]2)N(C(=O)OCc2ccccc2)C3)C(=O)O)c(C)c1  Integrin alpha-V/beta-3 and alpha-IIb/beta 3 (Homo sapiens, UniProt P05106+P06756+P08514)           µM        34
2  Cc1cc(C)c(S(=O)(=O)N[C@@H](CNC(=O)C2=NO[C@@]3(C2)C[C@@H](CNC2=NCCN2)N(C(=O)OCc2ccccc2)C3)C(=O)O)c(C)c1  Integrin alpha-V/beta-3 and alpha-IIb/beta 3 (Homo sapiens, UniProt P05106+P06756+P08514)           µM       9.2
3  Cc1cc(C)c(S(=O)(=O)N[C@@H](CNC(=O)C2=NO[C@]3(C2)C[C@@H](CNc2ncc[nH]2)N(C(=O)OCc2cccnc2)C3)C(=O)O)c(C)c1  Integrin alpha-V/beta-3 and alpha-IIb/beta 3 (Homo sapiens, UniProt P05106+P06756+P08514)           µM       5.6

* * *

- assayTarget: Integrin alpha-V/beta-3 (Homo sapiens)
- testDescription: Evaluated in an functional alpha-v beta-3 antagonism assay, involving adhesion of beta-3-transfected 293 cells to fibrinogen (alpha-v beta-3 293 beta3)
Measured IC50 of individual entries
valueKind: IC50 (nM)

In [3]: df
Out[3]:
                               samplesmiles  observed
0  CCCCOC(=O)N1C[C@@]2(CC(C(=O)NC[C@H](NS(=O)(=O)c3c(C)cc(C)cc3C)C(=O)O)=NO2)C[C@H]1CNc1nc2ccccc2[nH]1        87
1  COC(=O)N1C[C@@]2(CC(C(=O)NC[C@H](NS(=O)(=O)c3c(C)cc(C)cc3C)C(=O)O)=NO2)C[C@H]1CNc1nc2ccccc2[nH]1        34
2  Cc1cc(C)c(S(=O)(=O)N[C@@H](CNC(=O)C2=NO[C@]3(C2)C[C@@H](CNc2nc4ccccc4[nH]2)N(C(=O)OCc2ccccc2)C3)C(=O)O)c(C)c1        74
3  COC(=O)N1C[C@@]2(CC(C(=O)NC[C@H](NS(=O)(=O)c3c(C)cc(C)cc3C)C(=O)O)=NO2)C[C@H]1CNc1ncc[nH]1        57
4  Cc1cc(C)c(S(=O)(=O)N[C@@H](CNC(=O)C2=NO[C@]3(C2)C[C@@H](CNc2ncc[nH]2)N(C(=O)OCc2ccccc2)C3)C(=O)O)c(C)c1        41
5  Cc1cc(C)c(S(=O)(=O)N[C@@H](CNC(=O)C2=NO[C@]3(C2)C[C@@H](CNc2ncc[nH]2)N(C(=O)OCc2cccnc2)C3)C(=O)O)c(C)c1        32
6  Cc1cc(C)c(S(=O)(=O)N[C@@H](CNC(=O)C2=NO[C@]3(C2)C[C@@H](CNc2ccccn2)N(C(=O)OCc2ccccc2)C3)C(=O)O)c(C)c1        49
7  CCCCOC(=O)N1C[C@@]2(CC(C(=O)NC[C@H](NS(=O)(=O)c3c(C)cc(C)cc3C)C(=O)O)=NO2)C[C@H]1CNc1ncc[nH]1       130
8  Cc1cc(C)c(S(=O)(=O)N[C@@H](CNC(=O)C2=NO[C@]3(CN[C@H](CNc4ncc[nH]4)C3)C2)C(=O)O)c(C)c1       180

* * *

- assayTarget: Integrin alpha-V/beta-3 and alpha-IIb/beta 3 (Homo sapiens, UniProt P05106+P06756+P08514)
- testDescription: Inhibition of platelet aggregation in human platelet-rich plasma alpha IIb beta-3 integrin to assess the selectivity for the alpha-v beta-3 over the GPIIb/IIIa integrin receptor
valueKind: IC50

                               samplesmiles                               assaytarget  observed
0  COC(=O)N1C[C@@]2(CC(C(=O)NC[C@H](NS(=O)(=O)c3c(C)cc(C)cc3C)C(=O)O)=NO2)C[C@H]1CNc1nc2ccccc2[nH]1  Integrin alpha-V/beta-3 and alpha-IIb/beta 3 (Homo sapiens, UniProt P05106+P06756+P08514)  > 100 µM
1  Cc1cc(C)c(S(=O)(=O)N[C@@H](CNC(=O)C2=NO[C@]3(C2)C[C@@H](CNc2ccccn2)N(C(=O)OCc2ccccc2)C3)C(=O)O)c(C)c1  Integrin alpha-V/beta-3 and alpha-IIb/beta 3 (Homo sapiens, UniProt P05106+P06756+P08514)  > 100 µM
2  Cc1cc(C)c(S(=O)(=O)N[C@@H](CNC(=O)C2=NO[C@]3(C2)C[C@@H](CNc2nc4ccccc4[nH]2)N(C(=O)OCc2ccccc2)C3)C(=O)O)c(C)c1  Integrin alpha-V/beta-3 and alpha-IIb/beta 3 (Homo sapiens, UniProt P05106+P06756+P08514)  > 100 µM

All values here come from ChEMBL document CHEMBL1146830.
